Recorded values, source PubChem BioAssay (NCI).

# System: MOLT-4 leukemia
# MEASUREMENT_DESCRIPTION: NCI tumour cell line growth inhibition, 48 h
# TGI values compiled below
Respond with the bare value in µM.

Sample records with TGI:
>  <COMPOUND>
Cc1cc(N(CCC#N)S(=O)(=O)c2ccccc2)ccc1C=Nc1ccc(C(=O)O)cc1

>  <TEST_TARGET>
MOLT-4 leukemia

>  <RESULT_UNIT>
µM

>  <TGI>
13.8

$$$$
>  <COMPOUND>
CC(C)[C@@H](C(=O)O[C@@H]1/C=C/C(=O)O[C@@H](C)CCC/C=C/[C@@H]2C[C@H](O)C[C@H]21)N(C)C

>  <TEST_TARGET>
MOLT-4 leukemia

>  <RESULT_UNIT>
µM

>  <TGI>
42.8

$$$$
>  <COMPOUND>
CC12CCC(C1)C(C)(C)C2OC(=O)c1ccccc1N (stereo not given)

>  <TEST_TARGET>
MOLT-4 leukemia

>  <RESULT_UNIT>
µM

>  <TGI>
25.1

$$$$

// switching to the query compound
Summary for this compound, "CCCCCCc1ccc(CCCCCCCC(=O)O)o1" : TGI is 36.1
